The reported measurements were obtained from the RNAGym collection of RNA variant scans (doi:10.7554/elife.80360).

B1: CPEB3 Ribozyme (parent)
chain: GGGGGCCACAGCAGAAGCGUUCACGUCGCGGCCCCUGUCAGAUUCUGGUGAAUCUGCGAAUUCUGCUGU

- Variants of: B1
- ASSAY_PROTOCOL: self-cleavage, relative activity (ratio to wild type); higher = more cleavage; co-transcriptional
ASSAY_ENDPOINT: self-cleavage

>>> df
                              chain_sequence  assay_endpoint  quantitative_readout
 0  GGGGGCCACAGCAGAUGCGUUCACGUGGCGGCCCCUGUCAGAUUCUGGUGAAUCUGCGAAUUCUGCUGU [A16U C27G]   self-cleavage                 0.115
 1  GGGGGCAACAGCAGAAGCGUUCACGUCGCGGCCCCUGUCAGAUUCUGGUGAAACUGCGAAUUCUGCUGU [C7A U53A]   self-cleavage                 0.321
 2  GGGGGCAACAGCAGAAGCGUUCACGUCGCGGCCCCUGUCAGAUACUGGUGAAUCUGCGAAUUCUGCUGU [C7A U44A]   self-cleavage                 0.447
 3  GGGGGCCACAGCAGAGGCGUUCACGUCGCGGCCCCGGUCAGAUUCUGGUGAAUCUGCGAAUUCUGCUGU [A16G U36G]   self-cleavage                 0.259
 4  GGGGGCCACAGCAGGAGCGUUGACGUCGCGGCCCCUGUCAGAUUCUGGUGAAUCUGCGAAUUCUGCUGU [A15G C22G]   self-cleavage                 0.157
 5  GGGGGCCACAGCAGAAGCGUUCACGUCGCGGCCCCUUUCAGAUUCUGGUGAAUCUGCGAAUCCUGCUGU [G37U U62C]   self-cleavage                 0.299
 6  GGGGGCCACAGAAGAAGCGUUCCCGUCGCGGCCCCUGUCAGAUUCUGGUGAAUCUGCGAAUUCUGCUGU [C12A A23C]   self-cleavage                   0.6
 7  GGGGGCCAAAGCAGAAGCGUUCACGUCGCGGCCCCUGUCAGAUUCUGGUCAAUCUGCGAAUUCUGCUGU [C9A G50C]   self-cleavage                  1.03
 8  GGGGGCCACAGCAGAAGCAUUCACGUCGCGACCCCUGUCAGAUUCUGGUGAAUCUGCGAAUUCUGCUGU [G19A G31A]   self-cleavage                  0.17
 9  GGGGGCCACAGCAGAAGCGUUCACGUCGCGGCCCCUGUCAGAUACCGGUGAAUCUGCGAAUUCUGCUGU [U44A U46C]   self-cleavage                 0.993
10  GGGGGCCACAGCAGAAGCGUUCACGUCGCGGCCCCUGUCAGACUCUGGUGAAUCUUCGAAUUCUGCUGU [U43C G56U]   self-cleavage                 0.638
11  GGGGGCCACAGCAGAAGGGUUCACGUCGCGGCCCCUGUCAGAUUCUGGUGAAUCUGCGAAUUCUGCUUU [C18G G68U]   self-cleavage                 0.311
12  GGGGGCCACAGCAGAAGCGUCCACGUCGCGGCCCCUGUGAGAUUCUGGUGAAUCUGCGAAUUCUGCUGU [U21C C39G]   self-cleavage                 0.895
